Data origin, for the record: patent US20240415914A1

assay: Stability of cannabinoid and Vitamin E components of Beverage 2 (AB Red) stored at 8° C. and 21-25° C., LCMSMS over 570 days; settings: 21-25° C., 390 days
# Stability of Cannabinoids in AB Red per record follows
endpoint: Stability of Cannabinoids in AB Red (µg/mL)

>>> numeric_result("CCCCCc1cc(O)c2c(c1)OC(C)(C)c1ccc(C)cc1-2 [CBN, cannabinol]")
2.65
>>> numeric_result("C=C(C)[C@@H]1CCC(C)=C[C@H]1c1c(O)cc(CCCCC)c(C(=O)O)c1O [CBDA, cannabidiolic acid]")
1.61
>>> numeric_result("CCCCCc1cc(O)c(C/C=C(\\C)CCC=C(C)C)c(O)c1 [CBG, cannabigerol]")
4.57
>>> numeric_result("CCCCCc1cc(O)c2c(c1)OC(C)(C)[C@@H]1CCC(C)=C[C@@H]21 [D9 THC, delta-9-tetrahydrocannabinol, reference compound]")
12.1

---

assay type: physicochemical; settings: stored at room temperature (21-25° C.), day 17
# Stability in Powder Concentrate (content by LCMSMS) per record follows
endpoint: Stability in Powder Concentrate (content by LCMSMS) (mg/g powder)

>>> numeric_result("CCCCCc1cc(O)c2c(c1)OC(C)(C)[C@@H]1CCC(C)=C[C@@H]21 [D9 THC, delta-9-tetrahydrocannabinol, reference compound]")
2.54
>>> numeric_result("C=C(C)[C@@H]1CCC(C)=C[C@H]1c1c(O)cc(CCCCC)cc1O [CBD, cannabidiol, reference compound]")
5.97
>>> numeric_result("CCCCCc1cc(O)c2c(c1)OC(C)(C)c1ccc(C)cc1-2 [CBN, cannabinol]")
0.465
>>> numeric_result("C=C(C)[C@@H]1CCC(C)=C[C@H]1c1c(O)cc(CCC)cc1O [CBDV, cannabidivarin]")
0.051
>>> numeric_result("CCCCCc1cc2c(c(O)c1C(=O)O)[C@@H]1C=C(C)CC[C@H]1C(C)(C)O2 [D9 THCA, delta-9-tetrahydrocannabinolic acid]")
0.156
>>> numeric_result("Cc1c(C)c2c(c(C)c1O)CC[C@@](C)(CCC[C@H](C)CCC[C@H](C)CCCC(C)C)O2 [α-Tocopherol]")
4.94
>>> numeric_result("CCCCCc1cc(O)c2c(c1)OC(C)(CCC=C(C)C)C=C2 (stereo not shown) [CBC, cannabichromene]")
0.070

---

assay: Stability of cannabinoid and Vitamin E components of Beverage 2 (AB Red) stored at 8° C. and 21-25° C., LCMSMS over 570 days; conditions: 8° C., 10 days
Grouping by measured Stability of Cannabinoids in AB Red is done with the following cut points: one: < 0.5 µg/mL; two: ≥ 0.5 µg/mL and < 3 µg/mL; three: ≥ 3 µg/mL

>>> label_class("C=C(C)[C@@H]1CCC(C)=C[C@H]1c1c(O)cc(CCC)cc1O [CBDV, cannabidivarin]")
"one"
>>> label_class("CCCCCc1cc(O)c2c(c1)OC(C)(CCC=C(C)C)C=C2 (stereo not drawn) [CBC, cannabichromene]")
"one"
>>> label_class("C=C(C)[C@@H]1CCC(C)=C[C@H]1c1c(O)cc(CCCCC)c(C(=O)O)c1O [CBDA, cannabidiolic acid]")
"two"
>>> label_class("CCCc1cc(O)c2c(c1)OC(C)(C)[C@@H]1CCC(C)=C[C@@H]21 [THCV, delta-9-tetrahydrocannabivarin]")
"three"
>>> label_class("CCCCCc1cc2c(c(O)c1C(=O)O)[C@@H]1C=C(C)CC[C@H]1C(C)(C)O2 [D9 THCA, delta-9-tetrahydrocannabinolic acid]")
"two"
>>> label_class("CCCCCc1cc(O)c2c(c1)OC(C)(C)[C@@H]1CCC(C)=C[C@@H]21 [D9 THC, delta-9-tetrahydrocannabinol, reference compound]")
"three"
>>> label_class("CCCCCc1cc(O)c(C/C=C(\\C)CCC=C(C)C)c(O)c1 [CBG, cannabigerol]")
"three"
>>> label_class("CCCCCc1cc(O)c2c(c1)OC(C)(C)c1ccc(C)cc1-2 [CBN, cannabinol]")
"two"

---

experiment: Stability of cannabinoid and Vitamin E components of Beverage 1 (AB White) stored at 8° C. and 21-25° C., LCMSMS over 570 days; assay type: physicochemical; conditions: beverage stored at 8° C., day 0
endpoint: Stability in AB White, 8° C. (content by LCMSMS)

>>> result("CCCCCc1cc(O)c2c(c1)OC1(C)CCC3C1C2C3(C)C (stereo not shown)")
"0.550 µg/mL"
>>> result("CCCCCc1cc(O)c2c(c1)OC(C)(C)[C@@H]1CCC(C)=C[C@@H]21 [D9 THC, delta-9-tetrahydrocannabinol, reference compound]")
"12.2 µg/mL"
>>> result("C=C(C)[C@@H]1CCC(C)=C[C@H]1c1c(O)cc(CCCCC)cc1O [CBD, cannabidiol, reference compound]")
"28.5 µg/mL"
>>> result("C=C(C)[C@@H]1CCC(C)=C[C@H]1c1c(O)cc(CCC)cc1O")
"0.150 µg/mL"
>>> result("CCCCCc1cc(O)c2c(c1)OC(C)(CCC=C(C)C)C=C2 (stereo not shown)")
"0.320 µg/mL"
>>> result("CCCCCc1cc2c(c(O)c1C(=O)O)[C@@H]1C=C(C)CC[C@H]1C(C)(C)O2 [D9 THCA, delta-9-tetrahydrocannabinolic acid]")
"0.950 µg/mL"
>>> result("CCCCCc1cc(O)c(C/C=C(\\C)CCC=C(C)C)c(O)c1")
"4.87 µg/mL"

---

# Stability in Powder Concentrate (content by LCMSMS) per record follows
format: physicochemical; conditions: stored at room temperature (21-25° C.), day 25
endpoint: Stability in Powder Concentrate (content by LCMSMS) (mg/g powder)

>>> numeric_result("C=C(C)[C@@H]1CCC(C)=C[C@H]1c1c(O)cc(CCCCC)cc1O [CBD, cannabidiol, reference compound]")
6.01
>>> numeric_result("C=C(C)[C@@H]1CCC(C)=C[C@H]1c1c(O)cc(CCC)cc1O")
0.052
>>> numeric_result("C=C(C)[C@@H]1CCC(C)=C[C@H]1c1c(O)cc(CCCCC)c(C(=O)O)c1O")
0.401
>>> numeric_result("CCCc1cc(O)c2c(c1)OC(C)(C)[C@@H]1CCC(C)=C[C@@H]21 [THCV, delta-9-tetrahydrocannabivarin]")
0.689
>>> numeric_result("CCCCCc1cc(O)c2c(c1)OC(C)(C)[C@@H]1CCC(C)=C[C@@H]21 [D9 THC, delta-9-tetrahydrocannabinol, reference compound]")
2.55
>>> numeric_result("CCCCCc1cc(O)c2c(c1)OC(C)(CCC=C(C)C)C=C2 (stereo not shown)")
0.072
>>> numeric_result("Cc1c(C)c2c(c(C)c1OC(=O)CCC(=O)O)CC[C@@](C)(CCC[C@H](C)CCC[C@H](C)CCCC(C)C)O2 [α-Tocopheryl succinate]")
1.90

---

format: physicochemical; details: stored at room temperature (21-25° C.), day 17
# Stability in Powder Concentrate (content by LCMSMS) per record follows
endpoint: Stability in Powder Concentrate (content by LCMSMS) (mg/g powder)

>>> numeric_result("CC(=O)Oc1c(C)c(C)c2c(c1C)CCC(C)(CCC[C@H](C)CCC[C@H](C)CCCC(C)C)O2 (stereo partly drawn) [α-Tocopheryl acetate]")
2.13
>>> numeric_result("Cc1c(C)c2c(c(C)c1OC(=O)CCC(=O)O)CC[C@@](C)(CCC[C@H](C)CCC[C@H](C)CCCC(C)C)O2 [α-Tocopheryl succinate]")
1.88
>>> numeric_result("CCCc1cc(O)c2c(c1)OC(C)(C)[C@@H]1CCC(C)=C[C@@H]21 [THCV, delta-9-tetrahydrocannabivarin]")
0.681
>>> numeric_result("CCCCCc1cc(O)c2c(c1)OC1(C)CCC3C1C2C3(C)C (stereo not drawn)")
0.049
>>> numeric_result("C=C(C)[C@@H]1CCC(C)=C[C@H]1c1c(O)cc(CCCCC)c(C(=O)O)c1O")
0.421
>>> numeric_result("CCCCCc1cc(O)c(C/C=C(\\C)CCC=C(C)C)c(O)c1")
1.06

---

assay: Stability of cannabinoid and Vitamin E components of Beverage 1 (AB White) stored at 8° C. and 21-25° C., LCMSMS over 570 days; assay type: physicochemical; conditions: beverage stored at 8° C., day 22
Mark each entry 1 (yes) if its Stability in AB White, 8° C. (content by LCMSMS) sits below 5 µg/mL, and 0 (no) for all others.

>>> label_class("C=C(C)[C@@H]1CCC(C)=C[C@H]1c1c(O)cc(CCC)cc1O [CBDV, cannabidivarin]")
"1 (yes)"
>>> label_class("CCCCCc1cc(O)c2c(c1)OC1(C)CCC3C1C2C3(C)C (stereo not shown) [CBL, cannabicyclol]")
"1 (yes)"
>>> label_class("C=C(C)[C@@H]1CCC(C)=C[C@H]1c1c(O)cc(CCCCC)c(C(=O)O)c1O [CBDA, cannabidiolic acid]")
"1 (yes)"
>>> label_class("CCCCCc1cc(O)c(C/C=C(\\C)CCC=C(C)C)c(O)c1 [CBG, cannabigerol]")
"1 (yes)"
>>> label_class("C=C(C)[C@@H]1CCC(C)=C[C@H]1c1c(O)cc(CCCCC)cc1O [CBD, cannabidiol, reference compound]")
"0 (no)"
>>> label_class("CCCc1cc(O)c2c(c1)OC(C)(C)[C@@H]1CCC(C)=C[C@@H]21 [THCV, delta-9-tetrahydrocannabivarin]")
"1 (yes)"
>>> label_class("CCCCCc1cc(O)c2c(c1)OC(C)(C)[C@@H]1CCC(C)=C[C@@H]21 [D9 THC, delta-9-tetrahydrocannabinol, reference compound]")
"0 (no)"
